target: hCCR4 (Homo sapiens, UniProt P51679); assay: Calcium flux assay; conditions: Chem5-hCCR4 cells, CCL22 at EC80 of 1.5 nM, FLIPR Calcium 6 dye; read-out: Potency (IC50)
Sequence (P51679 whole entry): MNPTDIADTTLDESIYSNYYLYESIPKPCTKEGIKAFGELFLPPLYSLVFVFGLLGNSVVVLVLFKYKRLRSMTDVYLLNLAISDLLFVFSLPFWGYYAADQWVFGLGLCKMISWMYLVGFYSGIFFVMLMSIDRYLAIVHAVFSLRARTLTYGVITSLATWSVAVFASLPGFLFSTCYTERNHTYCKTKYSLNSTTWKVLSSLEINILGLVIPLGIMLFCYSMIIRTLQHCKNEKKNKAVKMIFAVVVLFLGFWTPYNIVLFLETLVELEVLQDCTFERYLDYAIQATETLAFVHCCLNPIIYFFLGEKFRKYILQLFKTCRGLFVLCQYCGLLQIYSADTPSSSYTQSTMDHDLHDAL
pIC50: −log10 of the molar value.
// values below are reported pIC50

C[C@H](c1ccc(Cl)cc1Cl)n1nc(C#N)c2ncc(N3CC([C@H]4CCCN(CCCC(=O)N(C)C)C4)C3)nc21 (single isomer, unassigned) [Example 75] :: > 7.00

Qu. Could you share which pIC50 value was measured for CC(O)CN1CCC[C@H](C2CN(c3cnc4c(C#N)nn([C@H](C)c5ccc(Cl)cc5Cl)c4n3)C2)C1 (single isomer, unassigned) [Example 29] ?
Ans. > 7.00

Qu. Entry to check: C[C@H](c1ccc(Cl)cc1Cl)n1nc(C#N)c2ncc(N3CC([C@@H]4CCN(CCCO)C4)C3)nc21 (single isomer, unassigned) [Example 94]
Ans. 6.30 to 7.00

Qu. Moving on to CC(=O)NCCN1CCC[C@@H](C2CN(c3cnc4c(C(F)(F)F)nn([C@H](C)c5ccc(Cl)cc5Cl)c4n3)C2)C1 (single isomer, unassigned) [Example 86]
Ans. 6.30 to 7.00

Qu. Consider next the compound Cc1nn([C@H](C)c2ccc(Cl)cc2Cl)c2nc(N3CC([C@@H]4CCCN(CC(=O)O)C4)C3)cnc12 (single isomer, unassigned) [Example 2] in the same way.
Ans. < 6.30

Qu. Now try CNS(=O)(=O)CCN1CCCC(C2CN(c3cnc4c(C#N)nn([C@H](C)c5ccc(Cl)cc5Cl)c4n3)C2)C1 (mixture of isomers) [Example 57] .
Ans. > 7.00

Qu. Field entry: CC(C)S(=O)(=O)NCCN1CCC[C@@H](C2CN(c3cnc4c(C(F)(F)F)nn([C@H](C)c5ccc(Cl)cc5Cl)c4n3)C2)C1 (single isomer, unassigned) [Example 110]
Ans. 6.30 to 7.00

Qu. Entry to check: Cc1nn([C@H](C)c2ccc(Cl)cc2Cl)c2nc(N3CC([C@@H]4CCCN(CCCS(C)(=O)=O)C4)C3)cnc12 (single isomer, unassigned) [Example 113]
Ans. 6.30 to 7.00

Qu. Ok, now C[C@H](c1ccc(Cl)cc1Cl)n1nc(C#N)c2ncc(N3CC([C@@H]4CCCN(Cc5ncc[nH]5)C4)C3)nc21 (single isomer, unassigned) [Example 81]
Ans. 6.30 to 7.00

Qu. Similarly, CC(=O)NCCN1CCC[C@H](C2CN(c3cnc4c(C)nn([C@H](C)c5ccc(Cl)cc5Cl)c4n3)C2)C1 (single isomer, unassigned) [Example 100] ?
Ans. > 7.00

Qu. Repeat with CC(=O)NCCN1CCC[C@@H](C2CN(c3cnc4c(C)nn([C@H](C)c5ccc(Cl)cc5Cl)c4n3)C2)C1 (single isomer, unassigned) [Example 101]
Ans. > 7.00

All figures here come from patent US10604526B2.
